- assay.name: LogD6.5 estimated from LogD7.4 and pKa
- particulars: octanol/buffer, pH 6.5
Could you please report measured logD for the items listed next?
// return just the number, without any unit appended

Prompt: Endpoint output: logD of CN(C)CCC=C1c2ccccc2COc2ccccc21 [Doxepin] . Value?
Response: 1.41

Prompt: Next molecule: C[C@]12C=CC(=O)C=C1CC[C@@H]1[C@@H]2C(=O)C[C@@]2(C)[C@H]1CC[C@]2(O)C(=O)CO
Response: 1.25

Prompt: Next molecule: CCN(CC)CCCN(c1ccccc1)C1Cc2ccccc2C1
Response: 1.53

Prompt: Next molecule: COc1ccc(C(CN(C)C)C2(O)CCCCC2)cc1 (stereo not drawn)
Response: 0.05

Prompt: Next molecule: Cc1c(F)c(N2CCNC(C)C2)cc2c1c(=O)c(C(=O)O)cn2C1CC1 (stereo not drawn)
Response: 0.5

Prompt: Next molecule: Nc1ccc(S(=O)(=O)c2ccc(N)cc2)cc1
Response: 0.85

Prompt: Next molecule: C[C@@H](c1ncncc1F)[C@](O)(Cn1cncn1)c1ccc(F)cc1F
Response: 1.7

Prompt: Next molecule: CCCCC1=NC2(CCCC2)C(=O)N1Cc1ccc(-c2ccccc2-c2nnn[nH]2)cc1
Response: 2.19

Prompt: Next molecule: CCCNC(=O)NS(=O)(=O)c1ccc(Cl)cc1 [Chlorpropamide]
Response: 0.56

====

- assay.name: Observed clearance ratio and fraction reabsorbed (Freab, Freab′) calculated from CLR, fu,p and GFR
- particulars: observed/apparent; 1 - CLR/(GFR x fu,p), GFR 120 mL/min
readout.label: Freab
// return just the number, without any unit appended

Prompt: Endpoint output: Freab of CCCc1cc(=O)[nH]c(=S)[nH]1 . Value?
Response: 0.83

Prompt: Next compound: COc1ccc(C(CN(C)C)C2(O)CCCCC2)cc1 (stereo not drawn)
Response: 0.09

Prompt: Next compound: CC(=O)NC[C@H]1CN(c2ccc(N3CCOCC3)c(F)c2)C(=O)O1
Response: 0.58

Prompt: Next compound: CCCN(CCC)S(=O)(=O)c1ccc(C(=O)O)cc1
Response: 0.96

Prompt: Next compound: Cc1cccc(C)c1NC(=O)C(C)N (stereo not drawn) [Tocainide]
Response: 0.18

Prompt: Next compound: O=C(NCCN1CCOCC1)c1ccc(Cl)cc1 [Moclobemide]
Response: 0.94

====

- assay.name: Ionisation classification at pH 6.5 from pKa
- Type: physicochemical
- particulars: predominant species (> 50%) at pH 6.5 from measured or calculated pKa
readout.label: Ionisation at pH 6.5

- CCN(CC)CCCN(c1ccccc1)C1Cc2ccccc2C1: Base
- COc1ccc(C(CN(C)C)C2(O)CCCCC2)cc1 (stereo not shown): Base
- CN(C)[C@@H]1C(O)=C(C(N)=O)C(=O)[C@@]2(O)C(O)=C3C(=O)c4c(O)cccc4[C@@](C)(O)[C@H]3[C@H](O)[C@@H]12: Zwitterion
- NCC1(CC(=O)O)CCCCC1: Zwitterion
- C=CCOc1ccccc1OCC(O)CNC(C)C (stereo not shown): Base
- CC(C)NCC(O)COc1ccc(CCOCC2CC2)cc1 (stereo not shown): Base
- Cn1c(=O)c2[nH]cnc2n(C)c1=O: Neutral
- CN(C)CCCC1(c2ccc(F)cc2)OCc2cc(C#N)ccc21 (stereo not shown): Base

Prompt: Endpoint output: Ionisation at pH 6.5 of CCCNC(=O)NS(=O)(=O)c1ccc(Cl)cc1 [Chlorpropamide] . Value?
Response: Acid

Prompt: Next molecule: Cc1cccc(C)c1NC(=O)C(C)N (stereo not shown) [Tocainide]
Response: Base

Prompt: Next molecule: CC[C@@H](C(N)=O)N1CCCC1=O
Response: Neutral

Prompt: Next molecule: Cc1cc(=O)n(-c2ccccc2)n1C [Antipyrine]
Response: Neutral

====

- assay.name: Caco-2 apparent permeability (Papp), apical to basolateral, pH 6.5-7.4 gradient, efflux inhibitor cocktail
- particulars: human, Caco-2, pH 6.5
Class Y: Papp A→B at 2 h at least 30 ×10⁻⁶ cm/s. Class N: Papp A→B at 2 h below 30 ×10⁻⁶ cm/s.

Prompt: Determine whether this compound has Papp A→B at 2 h no lower than 30 ×10⁻⁶ cm/s: COCCc1ccc(OCC(O)CNC(C)C)cc1 (stereo not drawn) [Metoprolol]
Response: N

Prompt: Next compound: COc1ccc(C(CN(C)C)C2(O)CCCCC2)cc1 (stereo not drawn) [Venlafaxine]
Response: N

Prompt: Next compound: CCCNC(=O)NS(=O)(=O)c1ccc(Cl)cc1 [Chlorpropamide]
Response: Y

Prompt: Next compound: CC1(C)O[C@@H]2[C@@H](CO[C@@]3(COS(N)(=O)=O)OC(C)(C)O[C@@H]23)O1 [Topiramate]
Response: Y

Prompt: Next compound: NC(=O)c1ncn([C@@H]2O[C@H](CO)[C@@H](O)[C@H]2O)n1 [Ribavirin]
Response: N

Prompt: Next compound: CN(C)[C@@H]1C(O)=C(C(N)=O)C(=O)[C@@]2(O)C(O)=C3C(=O)c4c(O)cccc4[C@@](C)(O)[C@H]3C[C@@H]12 [Tetracycline]
Response: N

Prompt: Next compound: N=C(N)c1ccc(CNC(=O)[C@@H]2CCN2C(=O)[C@H](NCC(=O)O)C2CCCCC2)cc1 [Melagatran]
Response: N

Prompt: Next compound: Cc1cc(NC(=O)C2=C(O)c3ccccc3S(=O)(=O)N2C)no1 [Isoxicam]
Response: Y

====

- assay.name: Observed clearance ratio and fraction reabsorbed (Freab, Freab′) calculated from CLR, fu,p and GFR
- particulars: calculated from observed CLR, fu,p and GFR
Apparent Freab’ class ranges: lower bin (below 0.3), middle bin (0.3 to below 0.7), upper bin (0.7 or more)

Prompt: // bin(item) where item = COCCc1ccc(OCC(O)CNC(C)C)cc1 (stereo not shown)
Response: lower bin

Prompt: Next molecule: Cc1cccc(C)c1NC(=O)C(C)N (stereo not shown) [Tocainide]
Response: lower bin

Prompt: Next molecule: CC1(C)O[C@@H]2[C@@H](CO[C@@]3(COS(N)(=O)=O)OC(C)(C)O[C@@H]23)O1 [Topiramate]
Response: upper bin

Prompt: Next molecule: CCCCC1=NC2(CCCC2)C(=O)N1Cc1ccc(-c2ccccc2-c2nnn[nH]2)cc1
Response: middle bin

Prompt: Next molecule: CC[C@@H](C(N)=O)N1CCCC1=O
Response: middle bin

Prompt: Next molecule: CCCc1cc(=O)[nH]c(=S)[nH]1
Response: upper bin

Prompt: Next molecule: CC(C)NCC(O)COc1ccc(CC(N)=O)cc1 (stereo not shown)
Response: lower bin

Prompt: Next molecule: C[C@@H]1CN(c2c(F)c(N)c3c(=O)c(C(=O)O)cn(C4CC4)c3c2F)C[C@H](C)N1
Response: upper bin

Prompt: Next molecule: CCN(CC)CCCN(c1ccccc1)C1Cc2ccccc2C1
Response: upper bin
